Values were extracted from patent US20110039721A1.

System: mRNA expressed from the genes (A) to (D) in rat liver
Assay method text: Behavior of genes (mRNA expression level, oligo-DNA microarray) in rat liver after 28-day oral administration
Assay type: in vivo
Measurement setup: gene group (C), Unigene No. Rn.118529
Property name: Behavior of gene caused by administration of chemical substance, Gene No. 4973

Quote Behavior of gene caused by administration of chemical substance, Gene No. 4973 reported for ClC(Cl)(Cl)Cl [TS003, Carbon tetrachloride] please. +

Quote Behavior of gene caused by administration of chemical substance, Gene No. 4973 reported for COc1ccc2c(c1)c(CC(=O)O)c(C)n2C(=O)c1ccc(Cl)cc1 please. −

Quote Behavior of gene caused by administration of chemical substance, Gene No. 4973 reported for Cl.Cl.Nc1ccc(N)cc1 [TS059, p-Phenylenediamine 2HCl] please. +

Quote Behavior of gene caused by administration of chemical substance, Gene No. 4973 reported for O=C1O[C@H]([C@@H](O)CO)C(O)=C1O please. −

Batch request: Behavior of gene caused by administration of chemical substance, Gene No. 4973 for each of the following compounds.
1. CC(O)CCl (stereo not drawn)
2. Nc1cc([N+](=O)[O-])ccc1C(=O)O

−
+
